biological target: NET (Homo sapiens, UniProt P23975)
Sequence (P23975 whole entry): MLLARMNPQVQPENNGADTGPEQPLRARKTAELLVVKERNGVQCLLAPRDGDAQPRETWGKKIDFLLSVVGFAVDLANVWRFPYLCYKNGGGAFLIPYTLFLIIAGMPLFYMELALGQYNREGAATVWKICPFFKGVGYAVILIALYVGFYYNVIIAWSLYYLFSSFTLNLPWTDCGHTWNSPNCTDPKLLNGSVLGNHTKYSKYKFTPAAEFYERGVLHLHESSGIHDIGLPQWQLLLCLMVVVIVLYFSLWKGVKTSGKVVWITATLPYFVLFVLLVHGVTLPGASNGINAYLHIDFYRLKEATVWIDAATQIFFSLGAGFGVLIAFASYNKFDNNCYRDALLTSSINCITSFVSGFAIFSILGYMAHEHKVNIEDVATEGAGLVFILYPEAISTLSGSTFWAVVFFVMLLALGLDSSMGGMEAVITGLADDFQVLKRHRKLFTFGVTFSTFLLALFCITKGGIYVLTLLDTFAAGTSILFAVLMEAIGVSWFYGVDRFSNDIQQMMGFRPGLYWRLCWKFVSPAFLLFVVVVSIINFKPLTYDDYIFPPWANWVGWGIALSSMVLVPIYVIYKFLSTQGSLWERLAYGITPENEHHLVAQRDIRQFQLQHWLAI
quantity measured: Ki

Tell me Ki reported for COc1ccc2[nH]cc(CCN(C)C)c2c1.O=C(O)C(=O)O
> 10 µM

###

target: UniProtKB P20309
Sequence (P20309 whole entry): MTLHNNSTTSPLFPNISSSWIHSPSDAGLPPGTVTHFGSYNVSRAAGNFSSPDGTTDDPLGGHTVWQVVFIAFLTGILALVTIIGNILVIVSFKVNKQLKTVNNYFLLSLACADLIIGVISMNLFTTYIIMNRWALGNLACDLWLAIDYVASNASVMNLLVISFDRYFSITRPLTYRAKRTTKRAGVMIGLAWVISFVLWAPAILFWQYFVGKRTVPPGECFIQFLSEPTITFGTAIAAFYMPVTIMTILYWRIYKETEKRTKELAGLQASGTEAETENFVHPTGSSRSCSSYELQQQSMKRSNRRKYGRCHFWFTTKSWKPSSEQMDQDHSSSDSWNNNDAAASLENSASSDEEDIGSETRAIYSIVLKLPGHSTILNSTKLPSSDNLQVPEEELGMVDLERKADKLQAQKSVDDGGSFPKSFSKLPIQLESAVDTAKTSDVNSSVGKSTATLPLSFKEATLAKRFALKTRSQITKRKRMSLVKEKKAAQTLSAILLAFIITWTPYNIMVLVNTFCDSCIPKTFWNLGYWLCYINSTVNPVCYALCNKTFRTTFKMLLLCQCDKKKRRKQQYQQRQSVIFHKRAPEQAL
quantity measured: Ki

Retrieve Ki on UniProtKB P20309; query COc1ccc2[nH]cc(CCN(C)C)c2c1.O=C(O)C(=O)O [5-MeO-DMT]
> 10 µM
